- TARGET OR SYSTEM: DCN1 (DCUND1) protein PONY domain (Homo sapiens (Human))
- Sequence (Q96GG9 60-248): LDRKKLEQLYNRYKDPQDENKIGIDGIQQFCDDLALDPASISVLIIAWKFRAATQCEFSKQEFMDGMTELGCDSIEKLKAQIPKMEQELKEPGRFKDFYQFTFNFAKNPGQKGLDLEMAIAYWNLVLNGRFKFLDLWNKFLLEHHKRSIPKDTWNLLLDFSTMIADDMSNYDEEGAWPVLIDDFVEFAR
- PROTOCOL NOTES: TR-FRET assay (binding to DCN-1, displacement of FAM-labeled probe)
- CONDITION DESCRIPTION: TR FRET IC50 1 hr (nM), 1 hr after treatment with compound
Each entry below lists one item and its recorded IC50 value.

The following molecules have reported results that may help.
molecule="Cc1nn(-c2ccccc2)c2c1[C@H](c1cccc(NC(=O)C3=CCC3)c1)[C@@H](NC(=O)c1cccc(C(F)(F)F)c1)C(=O)N2CCO (racemic) [Compound I-92]" target_or_system="DCN1 (DCUND1) protein PONY domain (Homo sapiens (Human))" measured_quantity=IC50 experimental_result="1000 to 3000 nM"
molecule="CCN1C(=O)[C@@H](NC(=O)c2cccc(C(F)(F)F)c2)[C@H](c2cccc(CNC(=O)C3=CCN(C)C3)c2)c2c(C)nn(-c3ccccc3)c21 [Compound I-244]" target_or_system="DCN1 (DCUND1) protein PONY domain (Homo sapiens (Human))" measured_quantity=IC50 experimental_result="1000 to 3000 nM"
molecule="C=CC(=O)Nc1cccc([C@H]2c3c(C)nn(-c4ccccc4)c3N(CC)C(=O)[C@@H]2NC(=O)c2cccc(C(F)(F)F)c2)c1 (racemic) [Compound I-77]" target_or_system="DCN1 (DCUND1) protein PONY domain (Homo sapiens (Human))" measured_quantity=IC50 experimental_result="1000 to 3000 nM"
molecule="C/C=C(\\CN1CCOCC1)C(=O)NCc1cccc([C@@H]2c3cnn(-c4ccccc4)c3N(CC)C(=O)[C@H]2NC(=O)c2ccn(C(F)(F)F)n2)c1 [Compound I-284]" target_or_system="DCN1 (DCUND1) protein PONY domain (Homo sapiens (Human))" measured_quantity=IC50 experimental_result="1000 to 3000 nM"
molecule="C=C(Cn1cc(F)cn1)C(=O)NCc1cccc([C@@H]2c3cnn(-c4ccccc4)c3N(CC)C(=O)[C@H]2NC(=O)c2nccc(C(F)(F)F)n2)c1 [Compound I-331]" target_or_system="DCN1 (DCUND1) protein PONY domain (Homo sapiens (Human))" measured_quantity=IC50 experimental_result="1000 to 3000 nM"

Query block: Entry C/C=C(\CN1CCN(C2COC2)CC1)C(=O)Nc1cccc([C@@H]2c3cnn(-c4ccccc4)c3N(CC)C(=O)[C@H]2NC(=O)c2ccn(C(F)(F)F)n2)c1 [Compound I-383] has what IC50?
Result block: ≤ 200 nM

Query block: Next entry: C=C(C(=O)NCc1cccc([C@@H]2c3cnn(-c4ccccc4)c3N(CC)C(=O)[C@H]2NC(=O)c2nccc(C(F)(F)F)n2)c1)C(C)N1CCC12COC2 (stereo partly drawn) [Compound I-256]
Result block: 200 to 1000 nM

Query block: Next entry: C/C=C(\CN1CCOCC1)C(=O)Nc1cccc([C@@H]2c3c(C)nn(-c4ccccc4)c3N(CC)C(=O)[C@H]2NC(=O)c2cccc(C(F)(F)F)c2)c1 (racemic) [Compound I-142]
Result block: ≤ 200 nM

Query block: CCN1C(=O)[C@@H](NC(=O)c2cccc(C(F)(F)F)c2)[C@H](c2cccc(CNC(=O)/C=C(\C)C(=O)OC)c2)c2cnn(-c3ccccc3)c21 [Compound I-73] ?
Result block: 1000 to 3000 nM

Query block: Try the molecule C=C(CN1CC2CC(C1)O2)C(=O)N(C)Cc1cccc([C@@H]2c3cnn(-c4ccccc4)c3N(CC)C(=O)[C@H]2NC(=O)c2ccn(C(F)(F)F)n2)c1 [Compound I-253]
Result block: 1000 to 3000 nM

Query block: Entry CCN1C(=O)[C@@H](NC(=O)c2cccc(C(F)(F)F)c2)[C@H](c2cccc(CNC/C=C/C(=O)N3CCCC3)c2)c2cnn(-c3ccccc3)c21 [Compound I-307] please
Result block: 1000 to 3000 nM

Query block: Field entry: CCN1C(=O)[C@H](NC(=O)c2cccc(C(F)(F)F)c2)[C@@H](c2cccc(NC(=O)[C@H](F)Cl)c2)c2c(C)nn(-c3ccccc3)c21 (mixture of isomers) [Compound I-150]
Result block: 1000 to 3000 nM

Query block: Follow-up entry: CCN1C(=O)[C@@H](NC(=O)c2nccc(C(F)(F)F)n2)[C@H](c2cccc(CNC(=O)C(COC)CN3CCC(F)(F)C3)c2)c2cnn(-c3ccccc3)c21 (stereo partly drawn) [Compound I-360]
Result block: 1000 to 3000 nM

Query block: Now consider CCN1C(=O)[C@@H](NC(=O)c2cccc(C(F)(F)F)c2)[C@H](c2cccc(CN(C)C#N)c2)c2c(C)nn(-c3ccccc3)c21 (racemic) [Compound I-40] .
Result block: 1000 to 3000 nM

Query block: Then what about the molecule CCN1C(=O)[C@@H](NC(=O)c2nccc(C(F)(F)F)n2)[C@H](c2cccc(C(=O)N3CCC[C@H]3C#N)c2)c2cnn(-c3ccccc3)c21 [Compound I-249] ?
Result block: 1000 to 3000 nM

Query block: Try this molecule too: CCN1C(=O)[C@@H](NC(=O)c2nccc(C(F)(F)F)n2)[C@H](c2cccc(NC(=O)C3=CCN(C)C3)c2)c2c(C)nn(-c3ccccc3)c21 [Compound I-224]
Result block: 200 to 1000 nM

Query block: What do we get for C/C=C(\CN1CCOCC1)C(=O)NCc1cccc([C@@H]2c3cnn(-c4ccccc4)c3N(CC)C(=O)[C@H]2NC(=O)c2ccn(C3CC3)n2)c1 [Compound I-241] ?
Result block: 1000 to 3000 nM

Query block: Quick one: C/C=C(\CN1CCC1)C(=O)NCc1cccc([C@@H]2c3cnn(-c4ccccc4)c3N(CC)C(=O)[C@H]2NC(=O)c2nccc(C(F)(F)F)n2)c1 [Compound I-314]
Result block: 200 to 1000 nM

Query block: // next record C/C=C(\CN1CCN(C2COC2)CC1)C(=O)Nc1cccc([C@@H]2c3cnn(-c4ccccc4)c3N(CC)C(=O)[C@H]2NC(=O)c2nccc(C(F)(F)F)n2)c1 [Compound I-232]
Result block: ≤ 200 nM

Query block: Same again, this time with C=C(CN1CCN(C2COC2)CC1)C(=O)N(C)Cc1cccc([C@@H]2c3cnn(-c4ccccc4)c3N(CC)C(=O)[C@H]2NC(=O)c2cccc(C(F)(F)F)c2)c1 [Compound I-218]
Result block: ≤ 200 nM

Query block: Same for C=C(CN1CC2(COC2)C1)C(=O)N(C)Cc1cccc([C@@H]2c3cnn(-c4ccccc4)c3N(CC)C(=O)[C@H]2NC(=O)c2cccc(C(F)(F)F)c2)c1 [Compound I-219]
Result block: 200 to 1000 nM
